# Target entity: T1, human Dll1 (human, UniProt O00548 18-723)
# T1 construct: whole, on cells
# T1 sequence (looked up): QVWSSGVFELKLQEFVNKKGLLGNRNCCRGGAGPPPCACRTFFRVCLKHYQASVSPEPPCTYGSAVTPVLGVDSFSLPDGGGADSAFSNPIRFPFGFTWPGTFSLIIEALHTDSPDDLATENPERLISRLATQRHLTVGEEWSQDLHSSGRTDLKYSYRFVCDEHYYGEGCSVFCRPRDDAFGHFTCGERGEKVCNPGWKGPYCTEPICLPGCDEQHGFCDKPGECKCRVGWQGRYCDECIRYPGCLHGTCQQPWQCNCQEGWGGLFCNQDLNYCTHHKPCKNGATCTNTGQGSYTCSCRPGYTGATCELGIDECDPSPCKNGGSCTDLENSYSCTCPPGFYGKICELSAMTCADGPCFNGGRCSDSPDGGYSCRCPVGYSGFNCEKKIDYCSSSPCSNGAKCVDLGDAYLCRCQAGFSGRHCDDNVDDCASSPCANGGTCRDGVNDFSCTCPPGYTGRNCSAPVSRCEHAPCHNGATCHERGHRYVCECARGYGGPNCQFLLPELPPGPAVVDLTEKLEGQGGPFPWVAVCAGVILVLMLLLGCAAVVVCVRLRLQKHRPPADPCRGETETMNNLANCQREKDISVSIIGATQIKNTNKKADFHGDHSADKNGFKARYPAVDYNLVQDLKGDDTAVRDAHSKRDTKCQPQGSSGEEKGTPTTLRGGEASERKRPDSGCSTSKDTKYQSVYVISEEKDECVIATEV
# Assay summary: FACS, 15 µg/ml, 293T cells with human Dll1
// values below are reported Dll1/293T X Geo mean
Please respond with just the number, no unit label.

- Binder: "2H10 (antibody, IgG4, V domains shown, Fully human; used for IgG4 rows and where no isotype is printed; also called 2H10 IgG4) VH: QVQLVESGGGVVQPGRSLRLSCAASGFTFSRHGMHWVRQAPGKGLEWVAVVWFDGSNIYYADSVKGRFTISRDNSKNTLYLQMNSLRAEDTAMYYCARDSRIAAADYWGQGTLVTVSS VL: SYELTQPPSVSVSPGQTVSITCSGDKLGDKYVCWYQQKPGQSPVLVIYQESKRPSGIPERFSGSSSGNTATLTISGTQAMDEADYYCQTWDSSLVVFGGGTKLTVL"
  Dll1/293T X Geo mean: 44.1

Note: attention shifts to another entry.
The binder listed as 1D4 (antibody, IgG4, V domains shown, Fully human XenoMouse antibody; also used where no isotype is printed) VH: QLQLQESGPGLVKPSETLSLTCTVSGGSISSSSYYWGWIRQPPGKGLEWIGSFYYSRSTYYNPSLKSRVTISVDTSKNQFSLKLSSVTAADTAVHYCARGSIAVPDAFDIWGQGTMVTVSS VL: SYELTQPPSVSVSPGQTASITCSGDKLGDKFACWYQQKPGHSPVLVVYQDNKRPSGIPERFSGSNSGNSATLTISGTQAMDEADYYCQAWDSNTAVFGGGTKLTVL shows Dll1/293T X Geo mean equal to 35.3
